# measured target: CFTR (Homo sapiens, UniProt P13569)
# Sequence (P13569 whole entry): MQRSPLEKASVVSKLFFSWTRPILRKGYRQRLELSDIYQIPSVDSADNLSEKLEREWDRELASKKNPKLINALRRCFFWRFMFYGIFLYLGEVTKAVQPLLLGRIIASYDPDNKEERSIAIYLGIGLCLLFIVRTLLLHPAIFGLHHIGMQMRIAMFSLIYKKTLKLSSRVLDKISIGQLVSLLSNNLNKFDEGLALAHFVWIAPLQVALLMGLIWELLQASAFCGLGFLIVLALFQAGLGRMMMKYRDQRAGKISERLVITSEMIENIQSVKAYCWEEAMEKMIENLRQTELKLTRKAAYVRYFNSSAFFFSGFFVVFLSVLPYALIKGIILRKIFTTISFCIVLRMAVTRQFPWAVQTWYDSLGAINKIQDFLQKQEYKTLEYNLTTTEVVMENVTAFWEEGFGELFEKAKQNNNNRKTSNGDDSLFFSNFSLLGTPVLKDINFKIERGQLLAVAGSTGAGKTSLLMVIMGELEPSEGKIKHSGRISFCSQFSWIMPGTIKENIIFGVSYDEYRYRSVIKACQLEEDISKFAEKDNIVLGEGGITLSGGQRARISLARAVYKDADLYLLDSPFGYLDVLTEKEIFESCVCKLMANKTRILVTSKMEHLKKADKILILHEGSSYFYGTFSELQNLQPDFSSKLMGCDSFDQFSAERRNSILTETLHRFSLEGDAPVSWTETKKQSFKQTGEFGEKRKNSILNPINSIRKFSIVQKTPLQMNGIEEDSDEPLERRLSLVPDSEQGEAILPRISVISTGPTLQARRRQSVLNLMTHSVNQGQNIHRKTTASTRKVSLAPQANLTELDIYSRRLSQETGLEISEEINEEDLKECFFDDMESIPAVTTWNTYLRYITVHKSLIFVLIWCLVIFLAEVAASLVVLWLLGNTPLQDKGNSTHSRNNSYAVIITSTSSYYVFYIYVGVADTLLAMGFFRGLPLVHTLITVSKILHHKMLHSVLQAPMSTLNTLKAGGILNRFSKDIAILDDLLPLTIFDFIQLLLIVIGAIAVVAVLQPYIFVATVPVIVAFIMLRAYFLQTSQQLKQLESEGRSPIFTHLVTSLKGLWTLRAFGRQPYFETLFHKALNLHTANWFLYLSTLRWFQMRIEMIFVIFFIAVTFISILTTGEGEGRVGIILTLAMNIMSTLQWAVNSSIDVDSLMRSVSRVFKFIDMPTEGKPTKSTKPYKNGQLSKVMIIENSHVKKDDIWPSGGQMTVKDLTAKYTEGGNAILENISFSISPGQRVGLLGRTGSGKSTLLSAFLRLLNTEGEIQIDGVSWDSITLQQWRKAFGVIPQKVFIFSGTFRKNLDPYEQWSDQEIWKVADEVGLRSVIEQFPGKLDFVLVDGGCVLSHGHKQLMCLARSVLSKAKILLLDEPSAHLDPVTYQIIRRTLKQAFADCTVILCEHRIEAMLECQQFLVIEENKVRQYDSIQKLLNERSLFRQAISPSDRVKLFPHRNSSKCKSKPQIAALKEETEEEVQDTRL
# test details: Short-circuit current (apical Cl− current) analysis on permeabilized CFTR-expressing FRT cells
# condition context: Ki, Table 4, Group IV; concentration giving 50% inhibition of CFTR Cl− conductance
endpoint name: pKi
Conceptually, pKi converts a concentration in mol/L into minus its log10.

Consider the reported pKi for these molecules:
| chem smiles | measured target | pKi |
| --- | --- | --- |
| O=C(COc1ccc2ccccc2c1)NN=Cc1cc(Br)c(O)c(Br)c1O | CFTR (Homo sapiens, UniProt P13569) | 4.68 |
| Cc1ccc(CC(=O)NN=Cc2cc(Br)c(O)c(Br)c2)cc1 | CFTR (Homo sapiens, UniProt P13569) | 4.82 |
| O=C(COc1ccc2ccccc2c1)NN=Cc1cc(Br)c(O)c(Br)c1 | CFTR (Homo sapiens, UniProt P13569) | 4.77 |

Would you kindly look at the next entry?
Prompt: Any idea what pKi came out for Cc1ccc(CC(=O)NN=Cc2cc(Br)c(O)c(Br)c2O)cc1 on CFTR (Homo sapiens, UniProt P13569)?
Completion: 5.00
